- Test system: RXF 393 renal
- protocol_description: NCI-60 one-dose screen, 48 h (100 = growth as untreated, 0 = no growth, -100 = all killed)
- assay_conditions: 10 µM unless noted
- Protocol: Cells are grown in 96 well plates and exposed to the test compound for 48 hours. Compounds are tested at a single concentration, which is 10^-5 M for most compounds. The reported endpoint is percent growth (GI% or GIPRCNT), where numbers from 0 - 100% represent growth inhibition, and numbers from -100% - 0 represent cell death. For example, a value of 40 represents 60% growth inhibition. A value of 0 means no net growth occurred over the course of the experiment. […]
This is part of a sample that, as a whole, favours compounds with a hit. Of some 83,000 tested, about 20% had one in any assay. Activity calls are given as the source filed them. How the source made its calls: active means growth percent below 10; inactive means the rest.
endpoint_label: growth

For CC(C)NCCCNC1=C(Cl)C(=O)c2ccccc2C1=O the molecule record lists growth as 119% (inactive)

For COc1ccc(-c2nc(/C=C3/C(=O)Nc4ccc(F)cc43)c3ccccn23)cc1 the molecule record lists growth as 112% (inactive)

For CCCCCCCC/C=C/CCCCCCCC1=NC(C)(C)CN1C(C)(C)CO the molecule record lists growth as 13.1% (inactive)

For c1cc2[nH]ncc2cc1-c1nc2ccc3[nH]ncc3c2c2c1CCC2 the molecule record lists growth as 19.5% (inactive)

Reference for the values: PubChem BioAssay (NCI)
